TEST_SYSTEM: T1, biotinylated human VWF cysteine knot (CK) domain construct (human, biotin on the in vitro biotinylation tag (residue not stated); one N-glycan)
T1 construct: Disulfide-linked homodimer; also called biotinylated human VWF CK domain; human VWF CK domain construct
T1 chain: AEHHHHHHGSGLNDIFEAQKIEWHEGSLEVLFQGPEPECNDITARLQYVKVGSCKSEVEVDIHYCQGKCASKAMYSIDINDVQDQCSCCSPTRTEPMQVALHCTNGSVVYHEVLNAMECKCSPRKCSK
ASSAY_SUMMARY: SPR, scFv captured on anti-SV5, pH 7.4
MEASUREMENT_LABEL: binding result

• 4761_Lib8_scFv (scFv, not shown: small tags and cut ends) scFv: EVQLVESGGGLVQPGRSLRLSCAASGFTFSSDTMHWVRQAPGKGLEWVSAISSSGDHTDYADSVEGRFTISRDNAKNSLYLQMNSLRAEDTAVYYCAREGLRGYYFDYWGQGTLVTVSSSGGSTITSYNVYYTKLSSSGTDIQMTQSPSSLSASVGDRVTITCRASQGISGHLAWYQQKPGKAPKLLIYAASALQSGVPSRFSGSGSGTDFTLTISSLQPEDVATYYCQQSHSLPWTFGGGTKVEIK = binds
• 15244_Lib8_scFv (scFv, not shown: small tags and cut ends) scFv: EVQLVESGGGLVQPGRSLRLSCAASGFTFADYDMHWVRQAPGKGLEWVSATSSHGVTTDYADSVEGRFTISRDNAKNSLYLQMNSLRAEDTAVYYCARGAWSGIAARQYIDYWGQGTLVTVSSSGGSTITSYNVYYTKLSSSGTDIQMTQSPSSLSASVGDRVTITCRASQTIGYWLAWYQQKPGKAPKLLIYDASVPESGVPSRFSGSGSGTDFTLTISSLQPEDVATYYCQQSYSYPLTFGGGTKVEIK = binds
